- System name: hemagglutinin (HA) of influenza B/Florida/04/06 (Yamagata) (influenza B virus)
- Method: cell-based or functional assay
Documented VNA IC50 across a set of binders
Result type: VNA IC50 (nM)

>>> observed_value("SD3085 (VHH) VHH: EVQLVESGGGLVQPGGSLRLSCAASGFTFSTSWMYWLRQAPGKGLEWVSVINTDGGTYYADSVKGRFTISRDNSKNTLYLQMNSLRAEDTAVYYCAKDWGGPEPTRGQGTLVTVSS")
64
>>> observed_value("SD3087 (VHH) VHH: EVQLLESGGGLVQPGGSLRLSCAASGFTLENKAIGWFRQAPGKEREGVLCISKSGSWTYYADSVKGRFTISRDNSKNTVYLQMNSLRPEDTAVYYCATTTAGGGLCWDGTTFSRLASSWGQGTLVTVSS")
160
>>> observed_value("SD3093 (VHH) VHH: EVQLVESGGGLVQPGGSLRLSCAISGLSLDTYAVGWFRQAPGKEREGVSCISSGHGMTYYADSVKGRFTISTDNSKNTVYLQMNSLRAEDTAVYYCATESRYYCSDNWPAPQRYIYWGQGTLVTVSS")
659
